meta.source: PubChem BioAssay AID1159580

assay: chemical genetic growth profiling, strain panel (AID 1159580);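 note: tested at 20 µM; growth read once vehicle control cultures reached saturation at 30 °C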; settings: S. cerevisiae deletion strains, growth OD, locus YHR013C, strain ard1
Hit rate of the full screen: of about 5,500 compounds, about 2,000 (36%) were called active. Inconclusive results (about 18%) are left out. Cut-off read from the data, not from the text of the source: active = normalized growth mostly below about 0.91 (no sharp cut-off); inconclusive = no clear call, values can overlap the other calls; inactive = mostly above about 0.92. Some of the results follow.
Please reply with one of these outcomes: t for active, f for inactive

Sample answers from the record:
# compound, assigned.category
rows = [
    ("CCCCC(=O)Oc1ccccc1C(=O)O", "f"),
    ("O=C(C1CCCCC1)N1CC(=O)N2CCc3ccccc3C2C1 (configuration not stated)", "f"),
    ("CC[C@H](C)C(=O)O[C@H]1C[C@@H](C)C=C2C=C[C@H](C)[C@H](CC[C@@H]3C[C@@H](O)CC(=O)O3)[C@H]21", "f"),
    ("CC(C)[C@@H]1CC[C@@H](C)C[C@H]1O", "f"),
    ("COc1c(OC)c2occc2c2oc(=O)ccc12", "f"),
    ("COC(=O)C1=CCCN(C)C1", "f"),
    ("C#CCCCCCCCCCCCC(O)CC(O)CO (configuration not stated)", "f"),
    ("C=CCCCCCCCCCCCC(O)CC(O)COC(C)=O (configuration not stated) (tested in a mixture with another compound)", "t"),
]

Per the assay record, what outcome was assigned to `NC(=O)c1cccc(N)c1` ?
f

====

experiment: chemical genetic growth profiling, strain panel (AID 1159580);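 note: tested at 20 µM; growth read once vehicle control cultures reached saturation at 30 °C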; details: S. cerevisiae deletion strains, growth OD, locus YDL134C, strain PPH21, stronger effect = lower value
Screen size: about 5,500 compounds; about 2,000 (36%) were called active. Inconclusive results (about 18%) are left out. Some of the results follow.
Values of normalized growth strictly less than 1 map to true, and values of at least 1 map to false.

// below: answered compounds
# compound, assigned.category
measured = [
    ("C/C1=C\\CCC(=O)C2CC(C)(C)C2CC1 (stereo unspecified)", "false"),
    ("C=C1CCC2C(CC2(C)C)C(=O)CCC1O (stereo unspecified)", "false"),
    ("N#Cc1c(N)oc(-c2ccco2)c1-c1ccco1", "true"),
]

Strictly below 1 in normalized growth? `C=C1C(=O)O[C@@H]2C[C@@]3(C)CCC[C@H](C)C3=C[C@H]12`
true

For this compound, is normalized growth lower than 1? O=[N+]([O-])c1ccc2c(c1)NC(c1ccc([N+](=O)[O-])s1)O2 (stereo unspecified)
true

====

assay: chemical genetic growth profiling, strain panel (AID 1159580);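 note: tested at 20 µM; growth read once vehicle control cultures reached saturation at 30 °C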; settings: S. cerevisiae deletion strains, growth OD, locus YMR058W, strain fet3
In all, about 5,500 compounds went through this assay and about 2,000 (36%) were called active. Roughly 18% stayed inconclusive and do not appear here. Rule as the data show it: active = normalized growth mostly below about 0.91 (no sharp cut-off); inconclusive = no clear call, values can overlap the other calls; inactive = mostly above about 0.92. Some of the results follow.
Tick one outcome: active, inactive

Some solved entries appear below for comparison.
# compound, assigned.category
records = [
    ("O=C1OC2(c3ccc(O)cc3Oc3cc(O)ccc32)c2ccccc21", "inactive"),
    ("CC1=CC2C(CC1=O)C(C)=CCC2C(C)C (configuration not stated)", "inactive"),
    ("Oc1ccc(Cl)cc1", "inactive"),
    ("Oc1ccc(Cl)cc1Cc1cc(Cl)ccc1O", "active"),
    ("COc1cc2c(cc1OC)C1Cc3ccc(OC)c(OC)c3CN1CC2 (configuration not stated)", "inactive"),
    ("CC(C)(C)CC(C)(C)c1ccc(O)c(Cc2ccc(Cl)cc2Cl)c1", "inactive"),
]

Moving on to another compound below.
Hi, sorry to bother you, what did the test record for `OCc1ccccc1O` ?
inactive
